- Tested on: MDA-MB-231
- test details: NCI tumour cell line growth inhibition, 48 h
Calls of active or inactive are those of the source. Rule as the data show it: active = GI50 up to about 1.1 µM and inactive = higher.
Catalogue of GI50 readings, one per entry.

[
  {
    "molecule": "CN(C)S(=O)(=O)Nc1ccccn1",
    "GI50": "> 100 µM (inactive)"
  },
  {
    "molecule": "O=C1N[C@@H]2c3c(Br)sc(Br)c3C(=O)[C@@H]2O1",
    "GI50": "2.41 µM (inactive)"
  },
  {
    "molecule": "C=C(C)[C@@H]1CCc2c(c(C)cc(O)c(=O)c2O)C1",
    "GI50": "> 52.1 µM (inactive)"
  },
  {
    "molecule": "CC(=O)c1ccc(Br)cc1NC1=CC(=O)c2ncccc2C1=O",
    "GI50": "1.88 µM (inactive)"
  },
  {
    "molecule": "N=C(N)c1ccc(/N=N/c2c(O)ccc3cc(O)ccc23)cc1",
    "GI50": "> 100 µM (inactive)"
  },
  {
    "molecule": "CCN(CC)C(=S)N/N=C/c1cc([N+](=O)[O-])ccc1O",
    "GI50": "8.18 µM (inactive)"
  },
  {
    "molecule": "O=C(Nc1ccc(Cl)c(Cl)c1)OCCN1c2ccccc2Sc2ccccc21",
    "GI50": "> 10 µM (inactive)"
  },
  {
    "molecule": "O=P(O)(O)CCP(=O)(O)O",
    "GI50": "> 100 µM (inactive)"
  },
  {
    "molecule": "S=C1CSc2c(cnc3ccccc23)N1",
    "GI50": "> 100 µM (inactive)"
  },
  {
    "molecule": "Nc1nn2c(nc(N)c3c(N)n[nH]c32)c1/N=N\\c1ccc(Br)cc1",
    "GI50": "0.524 µM (active)"
  }
]

Q) Checklist item: GI50 tested on MDA-MB-231, entry [N-]=[N+]=Nc1cc(=O)[nH]c2ccccc12 , value?
A) > 100 µM (inactive)

Q) Can you look up GI50 on MDA-MB-231 for N#Cc1sc2c(c1OC(=O)c1ccc(C(F)(F)F)cc1)c(=O)n(-c1ccccc1)c(=S)n2-c1ccccc1 ?
A) 31.3 µM (inactive)

* * *

- Test system: MDA-N
- test details: NCI tumour cell line growth inhibition, 48 h
Active and inactive are the calls of the source. Rule as the data show it: active = GI50 up to about 1.1 µM and inactive = higher.
property: GI50

Here are 2 molecules together with their reported answers.
[
  {
    "molecule": "COc1cc2c3c([nH]c2c(OC)c1OC)CCN(Cc1ccccc1)C3",
    "property": "GI50",
    "reported measurement": "16.9 µM (inactive)"
  },
  {
    "molecule": "Cc1cn(C2CC(O)C(COP(=O)(O)OC3CC(n4c[n+]([BH2-]C#N)c5c(=O)[nH]c(N)nc54)OC3CO)O2)c(=O)[nH]c1=O (configuration not stated)",
    "property": "GI50",
    "reported measurement": "> 100 µM (inactive)"
  }
]

Q) Notebook: pull reported GI50 for MDA-N, entry CC(=O)NNc1nc(C)c(C(=O)NNC(=O)C(=O)Nc2nc3ccc([N+](=O)[O-])cc3s2)s1
A) 45.9 µM (inactive)

* * *

- Test system: SF-268
- test details: NCI tumour cell line growth inhibition, 48 h
Activity calls are given as the source filed them. Rule as the data show it: active = GI50 up to about 1.1 µM and inactive = higher.
Outcomes you can answer with include only these: 1 for active, 0 for inactive

Answered cases to consult:
[
  {
    "compound": "CC(=O)c1ccc(Br)cc1NC1=CC(=O)c2ncccc2C1=O",
    "tgt": "SF-268",
    "qualitative label": 0
  },
  {
    "compound": "COc1ccc(/C=C/NC=O)cc1",
    "tgt": "SF-268",
    "qualitative label": 0
  },
  {
    "compound": "CCCCCCCCC(=O)CCCCCCCCC(=O)O",
    "tgt": "SF-268",
    "qualitative label": 0
  },
  {
    "compound": "CCOc1ccc2ccccc2c1NC1=NCCO1",
    "tgt": "SF-268",
    "qualitative label": 0
  },
  {
    "compound": "CC(=O)/N=S(/NC(=O)c1ccc(C)cc1)C(Cl)(Cl)Cl (stereo not given)",
    "tgt": "SF-268",
    "qualitative label": 0
  }
]

Q) Short answer needed: outcome of this test for Cn1c(=O)[nH]c2c(c1=O)C(=O)CN2 ?
A) 0

Q) Could you kindly confirm the outcome this assay logged for C1=C2C3=[N+](CCCC3)CC2Cc2sccc21 (stereo not given) ?
A) 0

Q) Hi, sorry to bother you, what did the test record for O=C(/C=C/c1ccc(O)c(O)c1)OCCCc1ccccc1 ?
A) 0

Q) Hello, I am checking results. What call was entered for COc1ccc(/C=c2\s/c(=C3/SC(=S)N(c4ccccc4)C3=O)n(-c3ccccc3)c2=O)cc1 ?
A) 1

Q) Would you mind telling me which call this test gave O=Cc1cc2sc(C=O)cc2s1 ?
A) 0

Q) Hi team, can someone confirm the assay call for CCOC(=O)CCC(C(=O)OCC)n1nc2ccc(Nc3c(C)[n+]([O-])c4cc(F)c(OCC)cc4[n+]3[O-])cc2n1 (stereo not given) ?
A) 0

Q) Called result for COc1ccc2c(c1)C1Oc3ccccc3CC1CO2 (stereo not given)
A) 0

Q) Please indicate how the test categorized COC(=O)C(CCCCCCCC(C(=O)OC)C1=Nc2nnc(N)n2C1=O)C1=Nc2nnc(N)n2C1=O (stereo not given) .
A) 0

Q) In this assay, the call recorded for CCOC(=O)Oc1cc2c(c(OC)c1OC)-c1ccc(OC)c(=O)cc1C(NC(C)=O)CC2 (stereo not given) was what?
A) 1

Q) Could you please tell me the result logged for CCOP(=O)(OCC)[C@]12C[C@@H](C)C=C[C@H]1COC2=O in this assay?
A) 0

* * *

- Tested on: HOP-92
- test details: NCI tumour cell line growth inhibition, 48 h
Calls of active or inactive are those of the source. Rule as the data show it: active = GI50 up to about 1.1 µM and inactive = higher.
property: GI50

[
  {
    "compound": "Cc1ccc(S(=O)(=O)n2c(-c3ccccc3)c(-c3ccccc3)c3ccccc32)cc1",
    "reported measurement": "3.08 µM (inactive)"
  },
  {
    "compound": "CC(=O)/N=S(/NC(=O)c1ccc(C)cc1)C(Cl)(Cl)Cl (centres undefined)",
    "reported measurement": "> 100 µM (inactive)"
  },
  {
    "compound": "Nc1nc(O)nc2snnc12",
    "reported measurement": "20.3 µM (inactive)"
  },
  {
    "compound": "N#Cc1ccccc1C#C/C=C\\C#Cc1ccccn1",
    "reported measurement": "26.9 µM (inactive)"
  },
  {
    "compound": "Cc1cnc(SCCN2CCN(C)CC2)nc1-c1cc2ccccc2s1",
    "reported measurement": "5.53 µM (inactive)"
  }
]

Q) Could you share which GI50 value was measured for O=c1ncccn1[C@@H]1O[C@H](CO)[C@@H](O)[C@@H]1F ?
A) > 100 µM (inactive)

Q) // GI50 lookup, key: Nc1cccc(C2CCCc3c2[nH]c2ccccc32)c1 (centres undefined)
A) 16.9 µM (inactive)

* * *

- System: EKVX
- test details: NCI tumour cell line growth inhibition, 48 h
Active and inactive are the calls of the source. Cut-off read from the data, not from the text of the source: active = GI50 up to about 1.1 µM and inactive = higher.
Hi! Could you answer with just one of these? Yes = active, No = inactive

Use the examples below as a reference point.
[
  {
    "compound": "CCOC(=O)COc1c(OC)cc(C2C3=C(COC3=O)Oc3cc4c(cc32)OCO4)cc1OC (stereo unspecified)",
    "qualitative label": "No"
  },
  {
    "compound": "CN(C)C(=O)CO/N=C1/C(=C2/C(=O)Nc3ccccc32)Nc2ccccc21",
    "qualitative label": "No"
  },
  {
    "compound": "O=[N+]([O-])c1ccc(N/N=C(\\c2ccccc2)c2ccccn2)nc1",
    "qualitative label": "Yes"
  },
  {
    "compound": "CCOC(=O)C/C(N)=C(\\C#N)C(=O)OCC",
    "qualitative label": "No"
  },
  {
    "compound": "N=C(N)c1ccc(/C=C/c2ccc(C(=N)N)cc2)cc1",
    "qualitative label": "No"
  },
  {
    "compound": "CCOC(=O)C(C(N)=O)C1=Nc2cc([N+](=O)[O-])ccc2N/C1=C\\C(=O)c1ccccc1 (stereo unspecified)",
    "qualitative label": "No"
  }
]

Q) Tell me the assay call for c1cc2nnsc2s1 please.
A) No

Q) Hi team, can someone confirm the assay call for O=C1NC(=S)N/C1=C\c1ccc(Br)s1 ?
A) No

* * *

- Tested on: NCI-H460
- test details: NCI tumour cell line growth inhibition, 48 h
Activity calls are given as the source filed them. Rule as the data show it: active = GI50 up to about 1.1 µM and inactive = higher.
property: GI50

Worked examples, 8 compounds total:
[
  {
    "compound": "Cc1ccc(S(N)(=O)=O)cc1 [P-TOLUENESULFONAMIDE]",
    "GI50": "> 1000 µM (inactive)"
  },
  {
    "compound": "Cc1cccc(NC(=O)O/N=C(\\Cl)C(C)C)c1",
    "GI50": "16.8 µM (inactive)"
  },
  {
    "compound": "CC(=O)ON(C(C)=O)C1C(COC(c2ccccc2)(c2ccccc2)c2ccccc2)OC2OC3(CCCC3)OC21 (stereo unspecified)",
    "GI50": "6.75 µM (inactive)"
  },
  {
    "compound": "CCOC(=O)[C@H]1Nc2c(cccc2[N+](=O)[O-])[C@H]2OCC[C@@H]12",
    "GI50": "> 100 µM (inactive)"
  },
  {
    "compound": "Cc1ccc(C(=O)C2CC3(CCC2(O)c2ccc(C)cc2)CC(=O)Nc2ccccc2C3=O)cc1 (stereo unspecified)",
    "GI50": "40 µM (inactive)"
  },
  {
    "compound": "COc1cc(CNC(=O)[C@H](Cc2ccc(O)cn2)NC(C)=O)cc(OC)c1",
    "GI50": "> 100 µM (inactive)"
  },
  {
    "compound": "COc1ccc(N2C(=O)c3cc([N+](=O)[O-])cnc3S2(=O)=O)cc1",
    "GI50": "> 100 µM (inactive)"
  },
  {
    "compound": "Nc1nc(O)nc2snnc12",
    "GI50": "> 100 µM (inactive)"
  }
]

Q) What GI50 value was documented for this compound, Oc1ccc2c3c1OC1c4[nH]ncc4C[C@H]4[C@@H](C2)N(CC2CC2)CC[C@]314 (stereo partly specified) ?
A) > 100 µM (inactive)

Q) Returns the measured GI50 for the input compound. Input: COC(C)(C)CCc1[nH]c2ccccc2c1CC(=O)NCCc1cncn1C
A) > 100 µM (inactive)

Q) GI50 for Cc1[nH]c(=O)nc(S)c1C(=O)NC1C2CCCCC2NC2CCCCC21 (stereo unspecified) ?
A) 14.4 µM (inactive)
